- Organism: Rattus norvegicus
- run.description: DrugMatrix - Regimen: Daily Repeat
- Type: toxicity, organism-based, Sprague-Dawley
- Design: regimen Daily Repeat, gender Male, age 6-8 weeks
- assay.conditions: in vivo, po, 0 mg/kg, 72 h, tissue Plasma, route oral GAVAGE, dose level Control, time 3 day, vehicle 100 % WATER
experimental.endpoint: CREATININE (mg/dL)
Write the number in mg/dL without appending the unit.

# CREATININE of CCCc1nn(C)c2c(=O)[nH]c(-c3cc(S(=O)(=O)N4CCN(C)CC4)ccc3OCC)nc12 = 0.12

# CREATININE of CN1C2CCCC1CC(NC(=O)c1nn(C)c3ccccc13)C2 (configuration not stated) = 0.22

# CREATININE of OCCO = 0.12

# CREATININE of O=C(O)c1cccnc1 = 0.22

# CREATININE of Nc1ccc(S(=O)(=O)Nc2nccs2)cc1 = 0.22

# CREATININE of CNS(=O)(=O)Cc1ccc2[nH]cc(CCN(C)C)c2c1 = 0.18

# CREATININE of Cc1c(N(C)CS(=O)(=O)[O-])c(=O)n(-c2ccccc2)n1C.[Na+] [DIPYRONE SODIUM] = 0.22

# CREATININE of CC(C)(C)NC[C@H](O)COc1nsnc1N1CCOCC1 = 0.22

# CREATININE of CCN[C@@H](C)Cc1cccc(C(F)(F)F)c1 = 0.92

# CREATININE of CCCCCCCCCCCCCCCC[n+]1ccccc1.[Br-] = 0.18

# CREATININE of CCN(CC)CC#CCOC(=O)C(O)(c1ccccc1)C1CCCCC1 (configuration not stated) = 0.18

# CREATININE of CCOC(N)=O = 0.15

# CREATININE of CC[C@H]1OC(=O)[C@H](C)[C@@H](O[C@H]2C[C@@](C)(OC)[C@@H](O)[C@H](C)O2)[C@H](C)[C@@H](O[C@@H]2O[C@H](C)C[C@H](N(C)C)[C@H]2O)[C@](C)(O)C[C@@H](C)CN(C)[C@H](C)[C@@H](O)[C@]1(C)O = 0.11

# CREATININE of Nc1ccc(S(=O)(=O)Nc2ncccn2)cc1 = 0.92

# CREATININE of CC[C@H]1OC(=O)[C@H](C)[C@@H](O[C@H]2C[C@@](C)(OC)[C@@H](O)[C@H](C)O2)[C@H](C)[C@@H](O[C@@H]2O[C@H](C)C[C@H](N(C)C)[C@H]2O)[C@](C)(OC)C[C@@H](C)C(=O)[C@H](C)[C@@H](O)[C@]1(C)O = 0.21

# CREATININE of O=P1(N(CCCl)CCCl)NCCCO1 (configuration not stated) [CYCLOPHOSPHAMIDE ANHYDROUS] = 0.17

# CREATININE of O=C(O)c1cc(=O)c2c(OCC(O)COc3cccc4oc(C(=O)O)cc(=O)c34)cccc2o1 = 0.62

* * *

Task for the reader: assign each of the following compounds its reported ABSOLUTE EOSINOPHIL.
- Organism: Rattus norvegicus
- run.description: DrugMatrix - Regimen: Daily Repeat
- Format: toxicity, organism-based, Sprague-Dawley
- Design: regimen Daily Repeat, gender Male, age 6-8 weeks
- assay.conditions: in vivo, po, 0 mg/kg, 72 h, tissue Blood, route oral GAVAGE, dose level Control, time 3 day, vehicle .5 % CMC
Write the number in CELLS/uL without appending the unit.

# ABSOLUTE EOSINOPHIL of CC(C(=O)O)c1ccc(-c2ccccc2)c(F)c1 (stereo not drawn) = 222.83

# ABSOLUTE EOSINOPHIL of CN1C(=O)CN=C(c2ccccc2)c2cc(Cl)ccc21 = 0

# ABSOLUTE EOSINOPHIL of CO[C@H]1C[C@@H]2CC[C@@H](C)[C@@](O)(O2)C(=O)C(=O)N2CCCC[C@H]2C(=O)O[C@H]([C@H](C)C[C@@H]2CC[C@@H](O)[C@H](OC)C2)CC(=O)[C@H](C)/C=C(\C)[C@@H](O)[C@@H](OC)C(=O)[C@H](C)C[C@H](C)/C=C/C=C/C=C/1C = 47.67
